System: CDK1 (p34^cdc2, cyclin B) (Homo sapiens, UniProt P06493)
Sequence (P06493 whole entry, species assumed): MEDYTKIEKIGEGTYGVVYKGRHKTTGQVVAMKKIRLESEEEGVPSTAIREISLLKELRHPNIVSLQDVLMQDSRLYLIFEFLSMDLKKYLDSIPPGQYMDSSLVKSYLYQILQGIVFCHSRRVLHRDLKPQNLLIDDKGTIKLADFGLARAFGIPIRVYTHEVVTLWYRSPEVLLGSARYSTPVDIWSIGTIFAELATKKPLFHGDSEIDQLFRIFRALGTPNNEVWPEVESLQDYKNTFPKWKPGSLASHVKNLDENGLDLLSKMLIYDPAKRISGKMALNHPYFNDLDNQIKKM
Sequence (P14635 whole entry partner, species assumed): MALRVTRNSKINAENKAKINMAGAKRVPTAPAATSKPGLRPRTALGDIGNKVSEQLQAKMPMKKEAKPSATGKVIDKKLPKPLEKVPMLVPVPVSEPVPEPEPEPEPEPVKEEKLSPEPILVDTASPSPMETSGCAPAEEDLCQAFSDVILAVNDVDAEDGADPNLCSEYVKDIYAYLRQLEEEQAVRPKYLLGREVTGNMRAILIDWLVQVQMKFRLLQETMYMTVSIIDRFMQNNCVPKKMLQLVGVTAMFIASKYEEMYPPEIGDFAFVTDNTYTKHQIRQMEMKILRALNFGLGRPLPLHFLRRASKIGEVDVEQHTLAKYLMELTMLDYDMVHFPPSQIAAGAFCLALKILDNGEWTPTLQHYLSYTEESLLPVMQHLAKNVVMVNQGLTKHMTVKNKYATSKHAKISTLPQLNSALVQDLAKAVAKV
Label scheme for IC50: low group = under 2 µM, middle group = from 2 µM up to 10 µM, high group = 10 µM and over

// known answers, use as guide
CC(C)c1n[nH]c2c(Nc3ccc(Cl)cc3)ncnc12 [4-chloroanilino / isopropyl] ... middle group
CCc1n[nH]c2c(NCc3ccco3)ncnc12 [furfurylamino / ethyl] ... middle group
C=CCNc1ncnc2c(C(C)C)n[nH]c12 [allylamino / isopropyl] ... high group
CCc1n[nH]c2c(Nc3ccc(Br)cc3)ncnc12 [4-bromoanilino / ethyl] ... high group
COc1ccc(CNc2ncnc3c(C(C)C)n[nH]c23)cc1O ... low group

[in] Assign a bin to Cc1n[nH]c2c(Nc3ccc(N)c(Cl)c3)ncnc12 [3-chloro-4-aminoanilino / methyl]
[out] high group

[in] Assign a bin to CC(C)c1n[nH]c2c(NCc3ccc(O)cc3)ncnc12 [4-hydroxybenzylamino / isopropyl]
[out] low group

[in] Assign a bin to CC(C)c1n[nH]c2c(NC3CCCCC3N)ncnc12 (stereo not drawn) [(2-aminocyclohexyl)amino / isopropyl]
[out] high group

[in] Assign a bin to CC(C)c1n[nH]c2c(Nc3ccc(Cl)c(C(=O)O)c3)ncnc12 [3-carboxy-4-chloroanilino / isopropyl]
[out] middle group

[in] Assign a bin to Cc1n[nH]c2c(NC3CCCC3)ncnc12 [cyclopentylamino / methyl]
[out] high group

[in] Assign a bin to CCc1n[nH]c2c(Nc3ccccc3)ncnc12 [anilino / ethyl]
[out] high group

[in] Assign a bin to CC(C)c1n[nH]c2c(NCc3cccc(O)c3)ncnc12 [3-hydroxybenzylamino / isopropyl]
[out] low group

[in] Assign a bin to COc1ccc(CNc2ncnc3c(C(C)C)n[nH]c23)cc1 [4-methoxybenzylamino / isopropyl]
[out] middle group

[in] Assign a bin to CCc1n[nH]c2c(NCc3cccc(O)c3)ncnc12 [3-hydroxybenzylamino / ethyl]
[out] middle group

[in] Assign a bin to Cc1n[nH]c2c(NC3CCC3)ncnc12 [cyclobutylamino / methyl]
[out] high group

[in] Assign a bin to CCc1n[nH]c2c(NCc3ccccc3O)ncnc12 [2-hydroxybenzylamino / ethyl]
[out] middle group

[in] Assign a bin to CC(C)c1n[nH]c2c(Nc3ccccc3)ncnc12 [anilino / isopropyl]
[out] middle group

[in] Assign a bin to CC(C)c1n[nH]c2c(NCc3ccco3)ncnc12 [furfurylamino / isopropyl]
[out] low group
